The reported numbers originate from patent US20200062863A1.

# ASSAYED_SYSTEM: T1, human Factor XIIa-alpha (human, UniProt P00748 20-615)
# T1 sequence: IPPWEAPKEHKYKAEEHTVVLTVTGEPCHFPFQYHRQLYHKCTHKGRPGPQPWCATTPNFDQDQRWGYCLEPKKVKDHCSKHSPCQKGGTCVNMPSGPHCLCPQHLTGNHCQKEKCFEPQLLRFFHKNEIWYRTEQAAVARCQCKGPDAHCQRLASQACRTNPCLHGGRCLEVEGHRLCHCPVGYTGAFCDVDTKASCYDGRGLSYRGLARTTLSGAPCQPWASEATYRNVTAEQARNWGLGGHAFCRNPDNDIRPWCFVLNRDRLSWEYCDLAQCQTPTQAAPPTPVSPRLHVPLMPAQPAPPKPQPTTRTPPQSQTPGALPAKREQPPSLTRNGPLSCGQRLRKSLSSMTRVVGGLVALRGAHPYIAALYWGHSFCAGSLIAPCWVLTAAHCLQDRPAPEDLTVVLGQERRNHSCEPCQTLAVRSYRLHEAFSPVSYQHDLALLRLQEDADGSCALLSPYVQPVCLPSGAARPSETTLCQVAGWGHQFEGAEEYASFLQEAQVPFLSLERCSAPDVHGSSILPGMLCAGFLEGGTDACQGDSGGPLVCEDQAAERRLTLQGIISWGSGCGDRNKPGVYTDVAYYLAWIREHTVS
# TEST_DESCRIPTION: cell-based or functional assay
Each item that follows carries a reported % Inhibition, ratio FXIIa-alpha:Antibody 1:1.

VR115 (antibody, V domains shown) VH: EVQLLESGGGLVQPGGSLRLSCAASGFTFSKYIMQWVRQAPGKGLEWVSGIDIPTKGTVYADSVKGRFTISRDNSKNTLYLQMNSLRAEDTAVYYCARALPRSGYLISPHYYYYALDVWGQGTTVTVSS VL: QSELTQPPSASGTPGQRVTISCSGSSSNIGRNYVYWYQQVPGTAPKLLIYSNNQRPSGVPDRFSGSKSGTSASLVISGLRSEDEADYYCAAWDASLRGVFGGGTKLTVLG
100%

Alright, here's another binder for you.
Notebook: monoclonal antibody 3F7 (fully human IgG4/lambda) (antibody, V domains shown, also called 3F7 mAb; MAb 3F7) VH: EVQLLESGGGLVQPGGSLRLSCAASGFTFSKYIMQWVRQAPGKGLEWVSGIRPSGGTTVYADSVKGRFTISRDNSKNTLYLQMNSLRAEDTAVYYCARALPRSGYLISPHYYYYALDVWGQGTTVTVSS VL: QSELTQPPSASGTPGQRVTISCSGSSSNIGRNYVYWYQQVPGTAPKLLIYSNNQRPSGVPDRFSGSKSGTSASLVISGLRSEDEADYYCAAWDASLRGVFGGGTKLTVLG , % Inhibition, ratio FXIIa-alpha:Antibody 1:1 read as 97.9%
